# study_system: UniProt O35433
# protocol_text: Competition Binding Assay and Inhibition of Ca2+ Uptake Assay
# condition_parameters: pH 7.4; 37 °C
Assign Ki to each entry below.
The response must be a number in nM with no trailing unit.

Supply reported Ki belonging to this compound: C[C@H](C(=O)NC[C@H](COC(=O)C(C)(C)C)Cc1ccccc1)c1ccc(NS(C)(=O)=O)c(F)c1
8.56

Supply reported Ki belonging to this compound: CC(C)(C)C(=O)OCC(CNC(=O)Cc1ccc(NS(C)(=O)=O)c(F)c1)Cc1ccc(C(C)(C)C)cc1 (centres undefined)
440

Supply reported Ki belonging to this compound: Cc1ccc(CC(CNC(=O)C(C)c2ccc(NS(C)(=O)=O)c(F)c2)COC(=O)C(C)(C)C)cc1C (centres undefined)
10.8

Supply reported Ki belonging to this compound: Cc1ccc(CC(CNC(=O)C(C)(C)c2ccc(NS(C)(=O)=O)c(F)c2)COC(=O)C(C)(C)C)cc1C (centres undefined)
65

----------
# study_system: UniProt O35433
# protocol_text: Competition Binding Assay and Inhibition of Ca2+ Uptake Assay
# condition_parameters: pH 7.4; 37 °C; read-out: Ki
assay_readout: Ki (pM)
The response must be a number in pM with no trailing unit.

Report value only: Ki, UniProt O35433, C=C(C)[C@]12C[C@@H](C)[C@@]34OC(Cc5ccccc5)(O[C@@H]1[C@@H]3C=C(COC(=O)Cc1cc(I)c(O)c(OC)c1)C[C@]1(O)C(=O)C(C)=C[C@@H]41)O2
610

----------
# study_system: Transient receptor potential cation channel subfamily V member 1 (Rattus norvegicus)
# Sequence (O35433 whole entry): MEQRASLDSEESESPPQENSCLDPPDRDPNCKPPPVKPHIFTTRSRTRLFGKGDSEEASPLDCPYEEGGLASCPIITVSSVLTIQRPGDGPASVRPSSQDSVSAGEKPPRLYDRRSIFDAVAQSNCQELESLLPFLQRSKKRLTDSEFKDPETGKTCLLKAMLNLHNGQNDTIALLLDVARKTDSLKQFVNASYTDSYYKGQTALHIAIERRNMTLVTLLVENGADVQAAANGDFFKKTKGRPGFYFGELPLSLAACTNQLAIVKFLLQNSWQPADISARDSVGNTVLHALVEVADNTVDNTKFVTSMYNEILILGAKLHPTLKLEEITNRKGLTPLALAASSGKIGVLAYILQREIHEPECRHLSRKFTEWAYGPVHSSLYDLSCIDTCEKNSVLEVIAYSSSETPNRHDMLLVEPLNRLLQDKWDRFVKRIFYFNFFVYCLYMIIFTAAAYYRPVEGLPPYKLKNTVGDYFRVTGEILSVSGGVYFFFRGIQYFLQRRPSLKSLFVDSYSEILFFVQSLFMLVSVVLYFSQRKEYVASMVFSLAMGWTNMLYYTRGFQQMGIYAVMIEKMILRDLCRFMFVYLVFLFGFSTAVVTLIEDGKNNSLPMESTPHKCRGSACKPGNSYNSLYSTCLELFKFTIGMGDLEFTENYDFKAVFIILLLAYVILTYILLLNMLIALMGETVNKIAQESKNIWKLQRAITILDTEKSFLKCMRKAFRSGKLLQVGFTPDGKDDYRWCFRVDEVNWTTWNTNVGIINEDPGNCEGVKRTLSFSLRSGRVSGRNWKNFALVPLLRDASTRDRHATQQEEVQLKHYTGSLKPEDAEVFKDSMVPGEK
# protocol_text: Competition Binding Assay and Inhibition of Ca2+ Uptake Assay
# condition_parameters: pH 7.4; 37 °C
Assign Ki to each entry below.
The response must be a number in nM with no trailing unit.

Supply reported Ki belonging to this compound: COc1cc(C(C)(C)C(=O)NCC(COC(=O)C(C)(C)C)Cc2ccc(C)c(C)c2)ccc1NS(C)(=O)=O (stereo not drawn)
133

Supply reported Ki belonging to this compound: C[C@H](C(=O)NC[C@@H](COC(=O)C(C)(C)C)Cc1ccc(C(C)(C)C)cc1)c1ccc(NS(C)(=O)=O)c(Cl)c1
12.1

Supply reported Ki belonging to this compound: CC(C(=O)NCC(COC(=O)C(C)(C)C)Cc1ccc(C(C)(C)C)cc1)c1ccc(NS(C)(=O)=O)c(Cl)c1 (stereo not drawn)
12.3

Supply reported Ki belonging to this compound: CC(C(=O)NCC(COC(=O)C(C)(C)C)Cc1ccc(C(C)(C)C)cc1)c1ccc(NS(C)(=O)=O)cc1 (stereo not drawn)
52

Supply reported Ki belonging to this compound: Cc1ccc(CC(CNC(=S)NCc2ccc(NS(C)(=O)=O)c(F)c2)COC(=O)C(C)(C)C)cc1C (stereo not drawn)
7.8

Supply reported Ki belonging to this compound: C[C@H](C(=O)NC[C@@H](COC(=O)C(C)(C)C)Cc1ccccc1)c1ccc(NS(C)(=O)=O)c(F)c1
10

Supply reported Ki belonging to this compound: C[C@@H](C(=O)NC[C@H](COC(=O)C(C)(C)C)Cc1ccc(C(C)(C)C)cc1)c1ccc(NS(C)(=O)=O)c(F)c1
30.3

Supply reported Ki belonging to this compound: Cc1ccc(CC(CNC(=O)C2(c3ccc(NS(C)(=O)=O)c(F)c3)CC2)COC(=O)C(C)(C)C)cc1C (stereo not drawn)
567

Reference source for all entries: BindingDB's records for doi:10.1021/jm701049p
